What DGI-2 (OD) was measured for each of the following?
Molecular target: T1, DGI-2 polypeptide (UniProt Q15004 1-111, limits assumed)
T1 construct: Soluble recombinant protein coated at 500 ng/well; vector tag of pIVEX2.3-MCS not described for this construct; also called KIAA0101
T1 sequence (looked up): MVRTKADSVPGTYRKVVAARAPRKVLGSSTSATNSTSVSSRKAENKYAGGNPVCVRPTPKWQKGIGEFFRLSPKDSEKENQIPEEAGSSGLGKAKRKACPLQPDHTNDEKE
Assay: phage ELISA
Experimental: For analysis of individual target binders, colonies were picked and phage prepared as described above using helper phage, M13KO7. Ninety-six-well microtiter plates were coated with 500 ng/well of specific target protein, 500 ng/well lactate dehydrogenase (LDH) irrelevant or non-specific target, 500 ng/well of positive control antibody raised against ETAG, and negative control of non-fat milk powder-PBS 2% at 4° C. overnight. […] Plates were analyzed at 405 nm. […]
Your answer is read as OD, so omit the unit and give the number.

The measured DGI-2 (OD) associated with CCAWNGVGVGGLGWRVVVGPAAAGAPVPYPDPLEPRP [DGI-2-20F-PP-H4] reads 2.1

The reported DGI-2 (OD) of the binder RRILPWSFPGCGRMCAAAGAPVPYPDPLEPRP [DGJ-2-20R-3-A10] was 6.2

In plain terms, GLYQRGLAPRCRGERFGVRNAAAGAPVPYPDPLEPRP [DGI-2-20F-PP-C2] has a documented DGI-2 (OD) of 2.7

So, RSIRLQLIDEACQFFDGLCTAAAGAPVPYPDPLEPRP [DGI-2-20R-3-A8] ? Its DGI-2 (OD) was 6.9

FYI, the data here is from patent US7056679.
